# Tested on: isolated rat soleus muscles
# test_protocol: Recovery of nerve-stimulated contractile force in isolated rat soleus nerve-muscle preparations exposed to tubocurarine
# Type: cell-based
# measurement_context: 50 μM compound, 40 mins exposure, after 90 mins 115 nM tubocurarine
observed_property: Point increase (%) of initial force that was restored
Numbers only, in %.

Past entries and their recorded results:
Query :: Which value of Point increase (%) of initial force that was restored has been reported for "COC[C@@H](Oc1ccc(Br)cc1C1CCC1)C(=O)[O-].[Na+]" in the records?
Result :: −4.1

Query :: Which value of Point increase (%) of initial force that was restored has been reported for "COC[C@H](Oc1ccc(Br)cc1C1CCC1)C(=O)O" in the records?
Result :: 35.6

Query :: Which value of Point increase (%) of initial force that was restored has been reported for COC[C@@H](Oc1ccc(Br)cc1C1CC1)C(=O)O (single isomer, unassigned) in the records?
Result :: 0.2

Consider now this further compound.
Query :: Which value of Point increase (%) of initial force that was restored has been reported for "COC[C@H](Oc1cc(F)c(Br)cc1C1CC1)C(=O)O" in the records?
Result :: 22.3
